Would you mind telling me the reported protease stability score of each entry?
test: protease stability score; higher = more stable; yeast display proteolysis, trypsin and chymotrypsin;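 further: log10 excess protease needed over predicted unfolded state with 0 meaning unfolded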
Lab note: write the figure by itself, no unit.

**Q:** // protease stability score lookup, key: DETAQDLVTTLIEAWKTNDPDSVANLMDPNATVKIGDKSVHGKKQLEEMLKKLRDEMTIDIKRVDVKVNNGDAKVNARATFTHNGKPDSRTMSAEVEWNGDKVKEFRVHWEQ
**A:** 1

**Q:** // protease stability score lookup, key: DEQAQKRAKNFMTAIQSNDPQKVKENVDKDVNIRIGDRIVHGREQLEDYYSHWNTKMRQRVSFKRMDVQGNHVDLKAEASNTNNGQPNHFEVRITITFHNGKIEKANLEFQP
**A:** -0.422

**Q:** // protease stability score lookup, key: DETIHDQAQRFFRDVQTGDEENIHKYFDPNARFVVGDKDLHGMSEVAEDLARKWNEWRVDVRDYRIKVHNGRIEVHIDARFDHDGQPEDRSEVVVYTMKNGQVQMVEFHKQG
**A:** 0.464

**Q:** // protease stability score lookup, key: DEEEDKKMLDNINTIWERGNPDEIEKLIDPNARVQVGDKTLHGREQIKHFLKRLHERIDHFEYQSVSAHNGRMRARVRFRVNGVHVRMEIDATYNNGKVKKMEVRVTDEKHLERARK
**A:** 0.741

**Q:** // protease stability score lookup, key: DQEEAKKIVDKMLKAVENGNEEDLVKMGADGVEYRAGDKKAHGPEAIQEVVQYLKRKGVEVEVKEVQVKGDKAQTHVDYKVGNETMTATANATLKGGKIDRVEIDFDETLKKVIKDG
**A:** 0.154

**Q:** // protease stability score lookup, key: DEQENEKNVKDVQHAMETGDEELMLRNAPPDVRMEIGDKTLRGREEVSKEFKKFAKQIDRHSIHSIRFRGDKFEINMVVTVNGRHAVVNIELQIHNGKVNSMRVDPHDLEQQKQ
**A:** -0.249

**Q:** // protease stability score lookup, key: EEDQERQAEKLIRILENGDEDKAKEQADPNARFEYGDKKYHGMSNFATEVKKLRDHARVEFDNIRVRAHGDKVRIRLDFKVNINGDPSRFNVHMFNQMHNGQFKQMYKDLDPTELEQIHK
**A:** -0.25

**Q:** // protease stability score lookup, key: DQEVAETMMERWQKAVQKGDPKEVQEVYDPNVTWKDVDEEHQGKEQVVKQMRKVQKQGIEFQIRRAEVEGDRAQAVYDVKLGNLTVTFTVEMTVRGGRVQEVRVEMDEEAKKLVKKG
**A:** 0.136

**Q:** // protease stability score lookup, key: EERLQELAERWWKARRTGDPHKIRDLLDKDVRVEYGNKSIHGRENIAHEIVRQLKHLRLDEKVERIDRSNGHVRATLSVTVNINGQPYTYRFELRIRAHNGKVKKIELRMPEEVVRRLDT
**A:** 1.73

**Q:** // protease stability score lookup, key: DERKEMQKHFDRFVTALRENNPDQLREMADPDAKVRIGDKTLHGRDEVVHYLQLLAERADHISFDVKQFDVHNGVAHVDLRMRFTVNGQERHKDMIFVLNEVNGTVVIVQVQDK
**A:** 1.72

**Q:** // protease stability score lookup, key: DEELRKNFHTFLELMKNGNPEKLAEMADPNVRVNIGDEQLRGKHRLHQHARHLKHSLRFDYQSVDVKVTGNRVDANLRVVVKVNGKPIDYTVKIHITWRNGKIKTMEIKIPEDDQKKMRR
**A:** -0.089

**Q:** // protease stability score lookup, key: DEENRHQINEMWKQIQTNNPDEVMKQLDKDVQVVVGDKQIRGREEFAKHVEQLLREMDVEYHSIKVKVHNGEAHVKVRHTVDVNGKPREDTLDVQLQMKNGHVKHFELRIDEDKLEKLKR
**A:** -0.169

**Q:** // protease stability score lookup, key: DHDLVKHLESFIKNLQDGDDDKLAKYADPNAHIEVGDKVVSGRKQLQEEVRRQRKRMRISLDVKDVKAHNGQADVTFDQRVEVNGRPWQNRYTVIFFLHNGTLREARFDIPEREQRKLES
**A:** 0.189

Recorded values, source the NTF2 design screens of Basanta et al. (2020).
